# Test system: Mus musculus
# experiment summary: Analgesic activity in Swiss albino mouse assessed as acetic acid-induced writhing number at 50 mg/kg pretreated for 30 mins followed by acetic acid challenge and measured after 5 to 15 mins (reference value: 30.8 +/- 0.37)
# Type: functional

molecule | Activity
COc1c(N2CCN(CC(=O)Nc3nc4c(Cl)cccc4s3)C(C)C2)c(F)cc2c(=O)c(C(=O)O)cn(C3CC3)c12 (stereo not drawn) | 19.2
CCn1cc(C(=O)O)c(=O)c2cc(F)c(N3CCN(CC(=O)Nc4nc5ccc(C)cc5s4)CC3)cc21 | 17.8
CCn1cc(C(=O)O)c(=O)c2cc(F)c(N3CCN(CC(=O)Nc4nc5ccc(F)cc5s4)CC3)cc21 | 18.6
COc1c(N2CCN(CC(=O)Nc3nc4c(C)cccc4s3)C(C)C2)c(F)cc2c(=O)c(C(=O)O)cn(C3CC3)c12 (stereo not drawn) | 20.8
O=C(CN1CCN(c2cc3c(cc2F)c(=O)c(C(=O)O)cn3C2CC2)CC1)Nc1nc2ccc(F)cc2s1 | 17
COc1c(N2CCN(CC(=O)Nc3nc4ccc(Cl)c(Cl)c4s3)C(C)C2)c(F)cc2c(=O)c(C(=O)O)cn(C3CC3)c12 (stereo not drawn) | 0.73
O=C(CN1CCN(c2cc3c(cc2F)c(=O)c(C(=O)O)cn3C2CC2)CC1)Nc1nc2ccc([N+](=O)[O-])cc2s1 | 14.2
CCn1cc(C(=O)O)c(=O)c2cc(F)c(N3CCN(CC(=O)Nc4nc5ccc([N+](=O)[O-])cc5s4)CC3)cc21 | 17.8

----------
# Tested on: Staphylococcus aureus
# experiment summary: Antimicrobial activity against methicillin-susceptible Staphylococcus aureus clinical isolate incubated for 16 hrs by CLSI based agar dilution method
# Format: functional

molecule | bound operator | MIC / µg/mL
COc1c(N2CCCC(N(C)CC(O)Cn3cc([N+](=O)[O-])nc3C)C2)c(F)cc2c(=O)c(C(=O)O)cn(C3CC3)c12 (stereo unspecified) | = | 0.5
CCn1cc(C(=O)O)c(=O)c2cc(F)c(N3CCN(CC(O)Cn4cc([N+](=O)[O-])nc4Cl)CC3)c(OC)c21 (stereo unspecified) | > | 32
COc1c(N2C[C@@H]3CCCN(C[C@H](O)Cn4cc([N+](=O)[O-])nc4C)[C@@H]3C2)c(F)cc2c(=O)c(C(=O)O)cn(C3CC3)c12 | = | 0.125
COc1c(N2C[C@H]3CCCN(C(O)Cn4cc([N+](=O)[O-])nc4Cl)[C@H]3C2)c(F)cc2c(=O)c(C(=O)O)cn(C3CC3)c12 (stereo partly specified) | = | 0.5
COc1c(N2CCCC(N(C)C[C@@H](O)Cn3cc([N+](=O)[O-])nc3C)C2)c(F)cc2c(=O)c(C(=O)O)cn(C3CC3)c12 (stereo partly specified) | = | 1
O=C(O)c1cn(C2CC2)c2cc(N3CCN(CC(O)Cn4cc([N+](=O)[O-])nc4Cl)CC3)c(F)cc2c1=O (stereo unspecified) | = | 4

The values you see were collected from ChEMBL document CHEMBL4602605.
